Target: T1, human MSR1 extracellular domain expressed with a N-terminal nonahistidine tag (His9-hMSR1); R&D Systems, Cat … (human, UniProt P21757 77-451)
T1 construct: extracellular domain; also called His-hMSR1; 9xHis-hMSR1; not shown: N-terminal nonahistidine tag
T1 sequence (looked up): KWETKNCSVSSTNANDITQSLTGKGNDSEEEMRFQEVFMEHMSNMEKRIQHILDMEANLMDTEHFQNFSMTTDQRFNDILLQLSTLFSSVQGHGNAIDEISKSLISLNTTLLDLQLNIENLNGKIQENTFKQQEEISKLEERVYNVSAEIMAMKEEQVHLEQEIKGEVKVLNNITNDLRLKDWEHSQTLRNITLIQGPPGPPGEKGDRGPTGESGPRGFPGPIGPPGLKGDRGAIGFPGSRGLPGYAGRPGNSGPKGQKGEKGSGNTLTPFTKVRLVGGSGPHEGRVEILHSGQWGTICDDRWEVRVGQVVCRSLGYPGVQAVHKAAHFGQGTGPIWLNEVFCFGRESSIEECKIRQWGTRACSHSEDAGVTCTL
Test: SPR Biacore, 37 C, antibody captured
Give koff for every item shown.
// units = s⁻¹; emit number, no label

Can you share its koff? I mean this binder: H1H27729P-N297Q (antibody, V domains shown, Human IgG1 Fc with N297Q point mutation) VH: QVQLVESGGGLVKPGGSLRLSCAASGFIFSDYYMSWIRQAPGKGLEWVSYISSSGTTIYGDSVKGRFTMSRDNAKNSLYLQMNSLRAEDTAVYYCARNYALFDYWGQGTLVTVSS VL: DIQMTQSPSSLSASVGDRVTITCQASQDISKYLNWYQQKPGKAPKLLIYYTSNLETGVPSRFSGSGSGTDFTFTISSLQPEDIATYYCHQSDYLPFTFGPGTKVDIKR 0.00204

For H1H27734P-N297Q (antibody, V domains shown, Human IgG1 Fc with N297Q point mutation) VH: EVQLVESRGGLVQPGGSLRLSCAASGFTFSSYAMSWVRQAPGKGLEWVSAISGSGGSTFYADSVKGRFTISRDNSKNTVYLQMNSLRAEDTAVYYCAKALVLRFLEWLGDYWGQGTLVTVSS VL: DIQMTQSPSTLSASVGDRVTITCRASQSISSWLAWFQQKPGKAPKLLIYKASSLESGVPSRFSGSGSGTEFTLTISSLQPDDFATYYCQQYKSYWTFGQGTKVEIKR then? 0.0019

Also H1H27754P-N297Q (antibody, V domains shown, Human IgG1 Fc with N297Q point mutation) VH: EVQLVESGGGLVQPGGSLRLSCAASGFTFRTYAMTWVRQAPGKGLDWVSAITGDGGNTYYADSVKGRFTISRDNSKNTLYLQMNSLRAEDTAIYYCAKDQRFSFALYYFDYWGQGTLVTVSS VL: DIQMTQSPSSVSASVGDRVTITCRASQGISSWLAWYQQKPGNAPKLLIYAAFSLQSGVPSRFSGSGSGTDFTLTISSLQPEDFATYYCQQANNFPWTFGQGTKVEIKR ? 2.53e-05
